- assayTarget: MAP kinase-activated protein kinase 2 (Homo sapiens) (UniProt P49137)
- Sequence (P49137 whole entry, looked up): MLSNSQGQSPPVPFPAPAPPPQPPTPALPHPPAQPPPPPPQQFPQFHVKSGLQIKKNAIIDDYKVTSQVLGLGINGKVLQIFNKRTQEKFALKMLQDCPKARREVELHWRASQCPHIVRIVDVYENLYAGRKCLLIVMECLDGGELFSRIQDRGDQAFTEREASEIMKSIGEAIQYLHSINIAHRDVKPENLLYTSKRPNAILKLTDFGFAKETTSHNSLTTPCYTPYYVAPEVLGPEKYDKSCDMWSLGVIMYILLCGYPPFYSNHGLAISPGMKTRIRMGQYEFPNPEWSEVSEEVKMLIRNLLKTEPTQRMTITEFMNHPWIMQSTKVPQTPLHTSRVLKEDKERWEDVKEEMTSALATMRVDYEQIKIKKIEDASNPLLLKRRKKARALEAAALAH
- testDetails: Inhibition of MAPKAPK2 at 10 uM by HTRF assay relative to control
reportedEndpoint: inhibition (%)

1. COc1cccc(Nc2cc(N3CCC[C@H]3C(=O)NCCc3ccc(O)cc3)nc(N)n2)c1 | 0
2. COc1ccc(-c2noc(CN3CCN(c4cc(Nc5cccc(O)c5)ncn4)CC3)n2)cc1 | 0
3. COc1cccc(Nc2cc(Nc3cccc(C(=O)N(C)CCc4ccccn4)c3)nc(N)n2)c1 | 0
4. CN(C)c1ccc(C(=O)N2CCN(c3ncnc4c3CN(Cc3ccccc3)CC4)CC2)c2ccccc12 | 3
5. Cc1cccc(N(C)c2cc(Nc3cccc(C(=O)NCc4ccncc4)c3)ncn2)c1 | 0
6. Cc1cccc(Oc2ccnc(N3CCC[C@H]3C(=O)NCc3cccnc3)n2)c1 | 0
